Test system: PC3 prostate cancer cells
ASSAY METHOD TEXT: Cell viability of prostate cancer PC3 cells after 72 hours treatment
Type: cell-based
RECORDED CONDITIONS: Homo sapiens, PC-3, 20 μM

{"MOLECULE": "COc1cc(CNC(CC(N)=O)c2ccc3c(c2)nc(-c2ccc(N(CCOC(C)=O)CCOC(C)=O)cc2)n3C(C)C)cc(Br)c1OC (stereo not drawn) [LLS43Ac]", "TARGET DESC": "PC3 prostate cancer cells", "viability at 20 µM": "97%"}
{"MOLECULE": "CC(=O)OCCN(CCO)c1ccc(-c2nc3cc(C(CC(N)=O)NCc4ccc(-c5ccncc5)cc4)ccc3n2CCCn2ccnc2)cc1 (stereo not drawn)", "TARGET DESC": "PC3 prostate cancer cells", "viability at 20 µM": "93%"}
{"MOLECULE": "COc1ccc(CCn2c(-c3ccc(N(CCOC(C)=O)CCOC(C)=O)cc3)nc3cc(C(CC(N)=O)NCc4ccc5[nH]ncc5c4)ccc32)cc1 (stereo not drawn) [LLS53Ac]", "TARGET DESC": "PC3 prostate cancer cells", "viability at 20 µM": "101%"}
{"MOLECULE": "COc1ccc(CCn2c(-c3ccc(N(CCOC(C)=O)CCOC(C)=O)cc3)nc3cc(C(CC(N)=O)NCc4ccc5[nH]ccc5c4)ccc32)cc1 (stereo not drawn) [LLS69Ac]", "TARGET DESC": "PC3 prostate cancer cells", "viability at 20 µM": "2%"}
{"MOLECULE": "NC(=O)CC(NCc1ccc(Cl)c(Cl)c1)c1ccc2c(c1)nc(-c1ccc(N(CCO)CCO)cc1)n2Cc1ccc(Cl)c(Cl)c1 (stereo not drawn)", "TARGET DESC": "PC3 prostate cancer cells", "viability at 20 µM": "10%"}
{"MOLECULE": "CC(=O)OCCN(CCOC(C)=O)c1ccc(-c2nc3cc(C(CC(N)=O)NCc4cccn4S(=O)(=O)c4ccccc4)ccc3n2CCCN2CCCCC2)cc1 (stereo not drawn) [LLS52Ac]", "TARGET DESC": "PC3 prostate cancer cells", "viability at 20 µM": "91%"}

----------
System: 22RV1 prostate cancer cells
ASSAY METHOD TEXT: Cell viability of prostate cancer 22RV1 cells after 72 hours treatment
Format: cell-based
RECORDED CONDITIONS: Homo sapiens, 5 μM
ENDPOINT LABEL: viability at 5 µM (%)

{"COMPOUND": "NC(=O)CC(NCC1CCCCC1)c1ccc2c(c1)nc(-c1ccc(N3CCOCC3)cc1)n2Cc1cccc2ccccc12 (stereo not shown) [LLS103]", "READING UNIT": "%", "REPORTED": 0}
{"COMPOUND": "CN1CCN(c2ccc(-c3nc4cc(C(CC(N)=O)NCc5ccc(Cl)c(Cl)c5)ccc4n3Cc3ccc(Cl)c(Cl)c3)cc2)CC1 (stereo not shown) [LLS86]", "READING UNIT": "%", "REPORTED": 0}
{"COMPOUND": "CN(C)CCCOc1ccc(-c2nc3cc(C(CC(N)=O)NCc4ccc(Cl)c(Cl)c4)ccc3n2Cc2ccc(Cl)c(Cl)c2)cc1 (stereo not shown) [LLS85]", "READING UNIT": "%", "REPORTED": 1}
{"COMPOUND": "NC(=O)CC(NCC1CCCCC1)c1ccc2c(c1)nc(-c1ccc(N3CCOCC3)cc1)n2Cc1ccc2c(c1)OCO2 (stereo not shown) [LLS107]", "READING UNIT": "%", "REPORTED": 4}
{"COMPOUND": "CN1CCN(c2ccc(-c3nc4cc(C(CC(N)=O)NCC5CCCCC5)ccc4n3Cc3ccc(OC(F)(F)F)cc3)cc2)CC1 (stereo not shown) [LLS90]", "READING UNIT": "%", "REPORTED": 0}
{"COMPOUND": "NC(=O)CC(NCC1CCCCC1)c1ccc2c(c1)nc(-c1ccc(N3CCOCC3)cc1)n2Cc1ccc(Br)cc1 (stereo not shown) [LLS94]", "READING UNIT": "%", "REPORTED": 0}
{"COMPOUND": "NC(=O)CC(NCc1ccncc1)c1ccc2c(c1)nc(-c1ccc(N(CCO)CCO)cc1)n2Cc1ccc(Cl)c(Cl)c1 (stereo not shown) [LLS84]", "READING UNIT": "%", "REPORTED": 109}

----------
viability at 20 µM values for the molecules below.
Test system: PC3 prostate cancer cells
ASSAY METHOD TEXT: Cell viability of prostate cancer PC3 cells after 72 hours treatment
Assay type: cell-based
RECORDED CONDITIONS: Homo sapiens, PC-3, 20 μM

{"MOLECULE": "NC(=O)CC(NCc1ccc(Cl)c(Cl)c1)c1ccc2c(c1)nc(-c1ccc(N(CCO)CCO)cc1)n2CCCN1CCCCC1 (stereo not shown) [LLS46]", "viability at 20 µM / %": 94}
{"MOLECULE": "NC(=O)CC(NCc1ccc(Cl)c(Cl)c1)c1ccc2c(c1)nc(-c1ccc(N3CCOCC3)cc1)n2CCCN1CCCCC1 (stereo not shown) [LLS65]", "viability at 20 µM / %": 34}
{"MOLECULE": "COc1ccc(CCn2c(-c3ccc(N(CCOC(C)=O)CCOC(C)=O)cc3)nc3cc(C(N)CC(N)=O)ccc32)cc1 (stereo not shown) [LLS76]", "viability at 20 µM / %": 85}
{"MOLECULE": "CC(=O)OCCN(CCOC(C)=O)c1ccc(-c2nc3cc(C(CC(N)=O)NCc4ccc(Br)s4)ccc3n2CCN)cc1 (stereo not shown) [LLS45Ac]", "viability at 20 µM / %": 91}
{"MOLECULE": "NC(=O)CC(NCc1ccc2[nH]ncc2c1)c1ccc2c(c1)nc(-c1ccc(N(CCO)CCO)cc1)n2Cc1ccc(C(F)(F)F)cc1 (stereo not shown) [LLS77]", "viability at 20 µM / %": 103}
{"MOLECULE": "NC(=O)CC(NCC1CCCCC1)c1ccc2c(c1)nc(-c1ccc(N(CCO)CCO)cc1)n2Cc1ccc(OC(F)(F)F)cc1 (stereo not shown) [LLS42]", "viability at 20 µM / %": 0}
{"MOLECULE": "NC(=O)CC(NCc1ccc(-c2cncnc2)cc1)c1ccc2c(c1)nc(-c1ccc(N(CCO)CCO)cc1)n2Cc1ccc(OC(F)(F)F)cc1 (stereo not shown) [LLS51]", "viability at 20 µM / %": 105}

----------
Tested on: 22RV1 prostate cancer cells
ASSAY METHOD TEXT: Cell viability of prostate cancer 22RV1 cells after 72 hours treatment
Format: cell-based
RECORDED CONDITIONS: Homo sapiens, 5 μM
Hi! Could you tag entries with viability at 5 µM below 3% as label 1, and those at or above as label 0? Much appreciated.

{"COMPOUND": "CN(C)CCCOc1ccc(-c2nc3cc(C(CC(N)=O)NCC4CCCCC4)ccc3n2Cc2ccc(OC(F)(F)F)cc2)cc1 (stereo not shown) [LLS89]", "GROUP": "label 1"}
{"COMPOUND": "NC(=O)CC(NCc1ccc(Cl)c(Cl)c1)c1ccc2c(c1)nc(-c1ccc(N(CCO)CCO)cc1)n2Cc1cccc2ccccc12 (stereo not shown) [LLS102]", "GROUP": "label 1"}
{"COMPOUND": "CN(C)CCCOc1ccc(-c2nc3cc(C(CC(N)=O)NCC4CCCCC4)ccc3n2Cc2ccc(Br)cc2)cc1 (stereo not shown) [LLS95]", "GROUP": "label 1"}
{"COMPOUND": "NC(=O)CC(NCc1ccc(Cl)c(Cl)c1)c1ccc2c(c1)nc(-c1cccc(OCCN3CCOCC3)c1)n2Cc1ccc(Cl)c(Cl)c1 (stereo not shown) [LLS87]", "GROUP": "label 0"}
{"COMPOUND": "NC(=O)CC(NCC1CCCCC1)c1ccc2c(c1)nc(-c1ccc(N3CCOCC3)cc1)n2Cc1ccc(C(F)(F)F)c(F)c1 (stereo not shown) [LLS96]", "GROUP": "label 1"}
{"COMPOUND": "NC(=O)CC(NCc1ccc(Cl)c(Cl)c1)c1ccc2c(c1)nc(-c1ccc(N(CCO)CCO)cc1)n2Cc1ccc(Cl)c(C(F)(F)F)c1 (stereo not shown) [LLS97]", "GROUP": "label 1"}
{"COMPOUND": "NC(=O)CC(NCC1CCCCC1)c1ccc2c(c1)nc(-c1ccncc1)n2Cc1ccc(OC(F)(F)F)cc1 (stereo not shown) [LLS88]", "GROUP": "label 0"}
{"COMPOUND": "NC(=O)CC(NCC1CCCCC1)c1ccc2c(c1)nc(-c1ccc(N3CCOCC3)cc1)n2Cc1ccc(Cl)c(C(F)(F)F)c1 (stereo not shown) [LLS98]", "GROUP": "label 1"}
{"COMPOUND": "NC(=O)CC(NCC1CCCCC1)c1ccc2c(c1)nc(-c1ccc(N(CCO)CCO)cc1)n2Cc1ccc(Cl)c(Cl)c1 (stereo not shown) [LLS101]", "GROUP": "label 1"}
{"COMPOUND": "NC(=O)CC(NCC1CCCCC1)c1ccc2c(c1)nc(-c1ccc(N3CCOCC3)cc1)n2CCc1ccccn1 (stereo not shown) [LLS109]", "GROUP": "label 0"}
{"COMPOUND": "NC(=O)CC(NCc1ccc(Cl)c(Cl)c1)c1ccc2c(c1)nc(-c1ccc(N(CCO)CCO)cc1)n2Cc1ccc(C(F)(F)F)cc1 (stereo not shown) [LLS92]", "GROUP": "label 0"}
{"COMPOUND": "NC(=O)CC(NCc1ccc(F)c(F)c1)c1ccc2c(c1)nc(-c1ccc(N(CCO)CCO)cc1)n2Cc1ccc(Cl)c(Cl)c1 (stereo not shown) [LLS83]", "GROUP": "label 1"}
{"COMPOUND": "CN1CCN(c2ccc(-c3nc4cc(C(CC(N)=O)NCC5CCCCC5)ccc4n3Cc3ccc(Cl)c(C(F)(F)F)c3)cc2)CC1 (stereo not shown) [LLS99]", "GROUP": "label 1"}
{"COMPOUND": "NC(=O)CC(NCC1CCCCC1)c1ccc2c(c1)nc(-c1cccc(OCCN3CCOCC3)c1)n2Cc1ccc(OC(F)(F)F)cc1 (stereo not shown) [LLS91]", "GROUP": "label 0"}
{"COMPOUND": "NC(=O)CC(NCc1ccc(Cl)c(Cl)c1)c1ccc2c(c1)nc(-c1ccc(N(CCO)CCO)cc1)n2Cc1ccc(Br)cc1 (stereo not shown) [LLS93]", "GROUP": "label 1"}
